system: K5 (Thyroid Gland Carcinoma); assay: combination Emax (second highest fraction inhibited in the dose matrix, 72 h); higher = more inhibition; extreme values may be limits of the assay
Rule: combination Emax of 0.2 or more gives yes (1); anything lower gives no (0).

>>> qualitative_label("C=CCn1c(=O)c2cnc(Nc3ccc(N4CCN(C)CC4)cc3)nc2n1-c1cccc(C(C)(C)O)n1 [AZD1775] + Nc1ccn([C@@H]2O[C@H](CO)[C@@H](O)C2(F)F)c(=O)n1 [Gemcitabine] (first compound max 1 µM, partner max 0.3 µM)")
"yes (1)"
>>> qualitative_label("C[C@@H](c1ccc2nccn2c1)n1nnc2ncc(-c3cnn(C)c3)nc21 [Savolitinib] + Cc1c2c(nn1C)CSCc1cc(n(C)n1)CSc1cc(c3ccccc3c1)OCCCc1c(C(=O)O)n(C)c3c-2c(Cl)ccc13 [AZD5991] (first compound max 1 µM, 7x7, partner max 1 µM)")
"no (0)"
>>> qualitative_label("COc1nnc2ccc(N3CCC(c4ccc(OCCN5CCN(C)C(=O)[C@H]5C)cc4)CC3)nn12 [AZD5153] + C[C@@H]1COCCN1C2=NC(=NC(=C2)C3(CC3)[S@](=N)(=O)C)C4=C5C=CNC5=NC=C4 [AZD6738] (first compound max 1 µM, 7x7, partner max 10 µM)")
"yes (1)"
>>> qualitative_label("O=C(c1cc(Cc2n[nH]c(=O)c3ccccc23)ccc1F)N1CCN(C(=O)C2CC2)CC1 [Olaparib] + CC1(C)CCC(CN2CCN(c3ccc(C(=O)NS(=O)(=O)c4ccc(NCC5CCOCC5)c([N+](=O)[O-])c4)c(Oc4cnc5[nH]ccc5c4)c3)CC2)=C(c2ccc(Cl)cc2)C1 [Venetoclax] (first compound max 10 µM, 7x7, partner max 1 µM)")
"no (0)"

* * *

system: LoVo (Colorectal Carcinoma); test: combination Emax (second highest fraction inhibited in the dose matrix, 72 h); higher = more inhibition; extreme values may be limits of the assay
Each item that follows carries a reported combination Emax.
Observed Property: combination Emax

>>> reported_value("CC(=O)c1c(C)c2cnc(Nc3ccc(N4CCNCC4)cn3)nc2n(C2CCCC2)c1=O [Palbociclib] + Cn1cnc2c(F)c(Nc3ccc(Br)cc3Cl)c(C(=O)NOCCO)cc21 [Selumetinib] (first compound max 10 µM, 7x7, partner max 10 µM)")
0.679
>>> reported_value("C[C@@H](c1ccc2nccn2c1)n1nnc2ncc(-c3cnn(C)c3)nc21 [Savolitinib] + Cc1c2c(nn1C)CSCc1cc(n(C)n1)CSc1cc(c3ccccc3c1)OCCCc1c(C(=O)O)n(C)c3c-2c(Cl)ccc13 [AZD5991] (first compound max 1 µM, 7x7, partner max 1 µM)")
0.195
>>> reported_value("C[C@@H]1COCCN1c1cc(C2([S@](C)(=N)=O)CC2)nc(-c2ccnc3[nH]ccc23)n1 [AZD6738] + C1CC(C1)(C(=O)[O-])C(=O)[O-].N.N.[Pt+2] [Carboplatin] (first compound max 10 µM, 7x7, partner max 10 µM)")
0.8

* * *

Each item that follows carries a reported Bliss excess.
tested on: LoVo (Colorectal Carcinoma); test: Bliss excess, mean over the matrix (fraction); higher = more synergy
Observed Property: Bliss excess

>>> reported_value("Cc1cc2ncnn2cc1Nc1ncc2c(n1)n(C1CCOCC1)c(=O)n2C [AZD7648] + C=CCn1c(=O)c2cnc(Nc3ccc(N4CCN(C)CC4)cc3)nc2n1-c1cccc(C(C)(C)O)n1 [AZD1775] (first compound max 10 µM, partner max 1 µM)")
-0.0658
>>> reported_value("CN(CCO)CC[C@H](CSc1ccccc1)Nc1ccc(S(=O)(=O)NC(=O)c2ccc(N3CCC([C@@H](O)c4ccccc4-c4ccc(Cl)cc4)CC3)cc2)cc1S(=O)(=O)C(F)(F)F [AZD4320] + CCN(CCO)CCCOc1ccc2c(Nc3cc(CC(=O)Nc4cccc(F)c4)[nH]n3)ncnc2c1 [AZD2811] (first compound max 1 µM, 7x7, partner max 1 µM)")
-0.0278
>>> reported_value("CC1(C)CCC(CN2CCN(c3ccc(C(=O)NS(=O)(=O)c4ccc(NCC5CCOCC5)c([N+](=O)[O-])c4)c(Oc4cnc5[nH]ccc5c4)c3)CC2)=C(c2ccc(Cl)cc2)C1 [Venetoclax] + CS(=O)(=O)CCNCc1ccc(-c2ccc3ncnc(Nc4ccc(OCc5cccc(F)c5)c(Cl)c4)c3c2)o1 [Lapatinib] (first compound max 1 µM, 7x7, partner max 10 µM)")
-0.0768

* * *

tested on: RH-18 (Rhabdomyosarcoma); test: Bliss excess, mean over the matrix (fraction); higher = more synergy
Observed Property: Bliss excess

>>> reported_value("CCN(CCO)CCCOc1ccc2c(Nc3cc(CC(=O)Nc4cccc(F)c4)[nH]n3)ncnc2c1 [AZD2811] + C=CCn1c(=O)c2cnc(Nc3ccc(N4CCN(C)CC4)cc3)nc2n1-c1cccc(C(C)(C)O)n1 [AZD1775] (first compound max 1 µM, partner max 1 µM)")
-0.0471

* * *

tested on: NCI-H69 (Small Cell Lung Carcinoma); assay: Bliss excess, mean over the matrix (fraction); higher = more synergy
Observed Property: Bliss excess

>>> reported_value("CCc1c2c(nc3ccc(O)cc13)-c1cc3c(c(=O)n1C2)COC(=O)[C@]3(O)CC [SN-38] + O=C(c1cc(Cc2n[nH]c(=O)c3ccccc23)ccc1F)N1CCN(C(=O)C2CC2)CC1 [Olaparib] (first compound max 0.3 µM, 7x7, partner max 10 µM)")
-0.0035
>>> reported_value("Cc1cc2ncnn2cc1Nc1ncc2c(n1)n(C1CCOCC1)c(=O)n2C [AZD7648] + C[C@@H]1COCCN1C2=NC(=NC(=C2)C3(CC3)[S@](=N)(=O)C)C4=C5C=CNC5=NC=C4 [AZD6738] (first compound max 10 µM, 7x7, partner max 10 µM)")
-0.0348

* * *

test system: HMV-II (Melanoma); assay: combination Emax (second highest fraction inhibited in the dose matrix, 72 h); higher = more inhibition; extreme values may be limits of the assay
Observed Property: combination Emax

>>> reported_value("C[C@@H]1COCCN1c1cc(C2([S@](C)(=N)=O)CC2)nc(-c2ccnc3[nH]ccc23)n1 [AZD6738] + O=C(c1cc(Cc2n[nH]c(=O)c3ccccc23)ccc1F)N1CCN(C(=O)C2CC2)CC1 [Olaparib] (first compound max 10 µM, 7x7, partner max 10 µM)")
0.374
>>> reported_value("Cn1cnc2c(F)c(Nc3ccc(Br)cc3Cl)c(C(=O)NOCCO)cc21 [Selumetinib] + C[C@@H]1COCCN1C2=NC(=NC(=C2)C3(CC3)[S@](=N)(=O)C)C4=C5C=CNC5=NC=C4 [AZD6738] (first compound max 10 µM, 7x7, partner max 10 µM)")
0.735
>>> reported_value("CN(CCO)CC[C@H](CSc1ccccc1)Nc1ccc(S(=O)(=O)NC(=O)c2ccc(N3CCC([C@@H](O)c4ccccc4-c4ccc(Cl)cc4)CC3)cc2)cc1S(=O)(=O)C(F)(F)F [AZD4320] + CS(=O)(=O)CCNCc1ccc(-c2ccc3ncnc(Nc4ccc(OCc5cccc(F)c5)c(Cl)c4)c3c2)o1 [Lapatinib] (first compound max 1 µM, 7x7, partner max 10 µM)")
0.773
>>> reported_value("N#Cc1cnc(Nc2cc(NC[C@H]3CNCCO3)c(C(F)(F)F)cn2)cn1 [SRA737] + CCc1c2c(nc3ccc(O)cc13)-c1cc3c(c(=O)n1C2)COC(=O)[C@]3(O)CC [SN-38] (first compound max 10 µM, 7x7, partner max 0.3 µM)")
0.546

* * *

test system: SH-4 (Melanoma); experiment: Bliss excess, mean over the matrix (fraction); higher = more synergy
Rule: Bliss excess of -0.04 or more gives YES; anything lower gives NO.

>>> qualitative_label("CC(=O)Nc1cccc(-n2c(=O)n(C3CC3)c(=O)c3c(Nc4ccc(I)cc4F)n(C)c(=O)c(C)c32)c1 [Trametinib] + Cc1nc(-c2cn3c(n2)-c2ccc(-c4cnn(C(C)(C)C(N)=O)c4)cc2OCC3)n(C(C)C)n1 [Taselisib] (first compound max 1 µM, 7x7, partner max 10 µM)")
"YES"
>>> qualitative_label("CN(CCO)CC[C@H](CSc1ccccc1)Nc1ccc(S(=O)(=O)NC(=O)c2ccc(N3CCC([C@@H](O)c4ccccc4-c4ccc(Cl)cc4)CC3)cc2)cc1S(=O)(=O)C(F)(F)F [AZD4320] + C=CCn1c(=O)c2cnc(Nc3ccc(N4CCN(C)CC4)cc3)nc2n1-c1cccc(C(C)(C)O)n1 [AZD1775] (first compound max 1 µM, partner max 1 µM)")
"YES"
>>> qualitative_label("C=CCn1c(=O)c2cnc(Nc3ccc(N4CCN(C)CC4)cc3)nc2n1-c1cccc(C(C)(C)O)n1 [AZD1775] + O=C(c1cc(Cc2n[nH]c(=O)c3ccccc23)ccc1F)N1CCN(C(=O)C2CC2)CC1 [Olaparib] (first compound max 1 µM, partner max 10 µM)")
"NO"
>>> qualitative_label("Cc1c2c(nn1C)CSCc1cc(n(C)n1)CSc1cc(c3ccccc3c1)OCCCc1c(C(=O)O)n(C)c3c-2c(Cl)ccc13 [AZD5991] + C[C@@H](Nc1cc(F)cc(F)c1)c1cc(C(=O)N(C)C)cc2c(=O)cc(N3CCOCC3)oc12 [AZD8186] (first compound max 1 µM, 7x7, partner max 3 µM)")
"YES"
>>> qualitative_label("CC1(C)CCC(CN2CCN(c3ccc(C(=O)NS(=O)(=O)c4ccc(NCC5CCOCC5)c([N+](=O)[O-])c4)c(Oc4cnc5[nH]ccc5c4)c3)CC2)=C(c2ccc(Cl)cc2)C1 [Venetoclax] + C[C@@H](Nc1cc(F)cc(F)c1)c1cc(C(=O)N(C)C)cc2c(=O)cc(N3CCOCC3)oc12 [AZD8186] (first compound max 1 µM, 7x7, partner max 3 µM)")
"YES"
>>> qualitative_label("CN(CCO)CC[C@H](CSc1ccccc1)Nc1ccc(S(=O)(=O)NC(=O)c2ccc(N3CCC([C@@H](O)c4ccccc4-c4ccc(Cl)cc4)CC3)cc2)cc1S(=O)(=O)C(F)(F)F [AZD4320] + Cc1cc2ncnn2cc1Nc1ncc2c(n1)n(C1CCOCC1)c(=O)n2C [AZD7648] (first compound max 1 µM, 7x7, partner max 10 µM)")
"NO"
